studyTarget: HLA-C*14:02
experimentDescription: IEDB peptide-MHC binding, purified MHC/competitive/fluorescence; filed as Kd, often an IC50 or EC50 that approximates it; bounds were set here for any values at or beyond the usual limits of such assays
cond: source organism: Rickettsia felis URRWXCal2
propertyMeasured: Kd

Challenge: What Kd value was documented for this sequence, `FMYALSRAF` ?
Response given: ≤ 0.1 nM

----------
studyTarget: HLA-B*08:01
experimentDescription: IEDB peptide-MHC binding, purified MHC/competitive/fluorescence; filed as Kd, often an IC50 or EC50 that approximates it; bounds were set here for any values at or beyond the usual limits of such assays
cond: source organism: Human immunodeficiency virus 1
pKd: −log10 of the molar value.
propertyMeasured: pKd

Challenge: Fill in: pKd of `GTEEIRSLF` is ___
Response given: ≤ 4.70
